assay: Phase I clinical trial Part A: pharmacokinetics; format: in vivo; settings: male, human, plasma, po, 200 mg, 200 mg single oral dose; healthy male subjects; read-out: Cmax (Mean ± SD, ng/mL)
quantity: Cmax (ng/mL)

compound	quantity	observed_result
C[C@H](Oc1ccc(Br)cc1-c1ccon1)C(=O)O [NMD670]	Cmax	7780

* * *

experiment: Phase IIA clinical trial (Part C): pharmacokinetics in patients; type: in vivo; conditions: both sexes, human, plasma, 400 mg single oral dose, read-out: Tmax (median, hr)
quantity: Tmax (h)

compound	quantity	observed_result
C[C@H](Oc1ccc(Br)cc1-c1ccon1)C(=O)O [NMD670]	Tmax	2

* * *

experiment: Phase IIA clinical trial (Part C): pharmacokinetics in patients; format: in vivo; details: both sexes, human, plasma, 400 mg single oral dose, read-out: T1/2 (median, hr) (converted)
Source text: […]

compound	unit_spec	half-life
C[C@H](Oc1ccc(Br)cc1-c1ccon1)C(=O)O [NMD670]	h	5.43
